Assay: Effect of different auxiliaries on the solubility of HMLO active ingredient in water at 293° K
Type: physicochemical
Conditions: water, 293° K; auxiliary polyethylene glycol 6500 10.00%
result_type: solubility

Problem: Any idea what solubility was measured for CCCCCCCCCCCC(=NO)c1cc(C)ccc1O [HMLO, 2-hydroxy-5-methyllaurophenoxime] ?
Solution: 1 µg/mL
